- targetOrTestSystem: human progesterone receptor B (Homo sapiens, UniProt P06401)
- protocolDescription: Progesterone receptor-antagonistic action in stably transfected SK-N-MC cells with MMTV-LUC reporter (PR-B)
- conditionInfo: antagonistic potency against 0.1 nmol/l promegestone, 24 hours, luciferase
Parameter: IC50. Scope: all listed entries.
quantity: IC50 (nM)

- C[C@]12C[C@H](c3ccc(/C=C/C(=O)O)cc3)C3=C4CCC(=O)C=C4CC[C@H]3[C@@H]1CC[C@@]2(O)C(F)(F)C(F)(F)F [Example 13]: 0.3
- CCO/N=C/c1ccc([C@H]2C[C@@]3(C)[C@@H](CC[C@@]3(O)C(F)(F)C(F)(F)F)[C@@H]3CCC4=CC(=O)CCC4=C32)cc1 [Example 36]: 0.08

----------
Overview of recorded Predicted Fmax [%] (maximum oral bioavailability) Human for various molecules
- protocolDescription: Metabolic stability in human liver microsomes
- Type: in vitro ADME
quantity: Predicted Fmax [%] (maximum oral bioavailability) Human

* C[C@]12C[C@H](c3cccc(/C=C/c4ccncc4)c3)C3=C4CCC(=O)C=C4CC[C@H]3[C@@H]1CC[C@@]2(O)C(F)(F)C(F)(F)F [Example 23] | 67%
* C[C@]12C[C@H](c3ccc(/C=C/c4ccncc4)cc3)C3=C4CCC(=O)C=C4CC[C@H]3[C@@H]1CC[C@@]2(O)C(F)(F)C(F)(F)F [Example 8] | 87%
* C=CC=Cc1ccc([C@H]2C[C@@]3(C)C(CC[C@@]3(O)C(F)(F)C(F)(F)F)C3CCC4=CC(=O)CCC4=C32)cc1 (mixture of isomers) [Example 18] | 36%

----------
Listed next: entries and their corresponding pIC50.
- targetOrTestSystem: human progesterone receptor A (Homo sapiens)
- Sequence (P06401 1-769 isoform P06401-2): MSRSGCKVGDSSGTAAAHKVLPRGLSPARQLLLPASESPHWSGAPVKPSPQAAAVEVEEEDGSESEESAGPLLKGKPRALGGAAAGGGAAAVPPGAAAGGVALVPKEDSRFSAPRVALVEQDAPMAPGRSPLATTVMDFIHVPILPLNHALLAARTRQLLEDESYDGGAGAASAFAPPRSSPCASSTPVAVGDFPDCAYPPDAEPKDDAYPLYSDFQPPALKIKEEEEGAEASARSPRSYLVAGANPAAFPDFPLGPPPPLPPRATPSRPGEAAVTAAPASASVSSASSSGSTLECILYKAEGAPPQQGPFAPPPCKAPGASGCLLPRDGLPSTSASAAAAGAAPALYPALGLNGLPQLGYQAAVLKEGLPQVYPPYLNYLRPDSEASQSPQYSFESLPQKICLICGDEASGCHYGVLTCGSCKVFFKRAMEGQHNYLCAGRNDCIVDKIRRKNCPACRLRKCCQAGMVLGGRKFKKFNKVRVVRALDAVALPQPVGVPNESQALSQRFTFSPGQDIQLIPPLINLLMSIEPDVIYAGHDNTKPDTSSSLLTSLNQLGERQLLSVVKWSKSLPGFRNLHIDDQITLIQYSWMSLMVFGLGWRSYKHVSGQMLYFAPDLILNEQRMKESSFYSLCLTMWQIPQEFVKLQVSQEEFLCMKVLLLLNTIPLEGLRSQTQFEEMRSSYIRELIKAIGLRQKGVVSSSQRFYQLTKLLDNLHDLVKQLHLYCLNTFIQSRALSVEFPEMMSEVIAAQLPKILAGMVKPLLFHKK
- protocolDescription: Progesterone receptor-antagonistic action in stably transfected SK-N-MC cells with MMTV-LUC reporter (PR-A)
- conditionInfo: antagonistic potency against 0.1 nmol/l promegestone, 24 hours, luciferase
pIC50: −log10 of the molar value.
quantity: pIC50

• C[C@]12C[C@H](c3ccc(/C=C/C(=O)O)cc3)C3=C4CCC(=O)C=C4CC[C@H]3[C@@H]1CC[C@@]2(O)C(F)(F)C(F)(F)F [Example 13] = 10.00
• C[C@]12C[C@H](c3ccc(/C=C/C#N)cc3)C3=C4CCC(=O)C=C4CC[C@H]3[C@@H]1CC[C@@]2(O)C(F)(F)C(F)(F)F [Example 14] = 10.96
• C[C@]12C[C@H](c3ccc(/C=C/CO)cc3)C3=C4CCC(=O)C=C4CC[C@H]3[C@@H]1CC[C@@]2(O)C(F)(F)C(F)(F)F [Example 2] = 9.85
